System: KURAMOCHI
Assay: drug sensitivity score (DSS2) on cancer cell count; higher = more sensitive; extreme values may be limits of the assay
Conditions: co-cultured fibroblast: BJHTERT; 72 h
Readings of drug sensitivity score for the listed compounds

[
  {
    "SMI": "Nc1nc2cc(-c3ccc4ncc(C(=O)N5CCOCC5)n4c3)ccc2o1",
    "UNIT OF MEASUREMENT": "DSS",
    "drug sensitivity score": 3.3
  },
  {
    "SMI": "COc1cc(N2CCC(N3CCN(C)CC3)CC2)ccc1Nc1ncc(Cl)c(Nc2ccccc2P(C)(C)=O)n1",
    "UNIT OF MEASUREMENT": "DSS",
    "drug sensitivity score": 0.1
  },
  {
    "SMI": "Cc1sc2c(c1C)C(c1ccc(Cl)cc1)=N[C@@H](CC(=O)Nc1ccc(O)cc1)c1nnc(C)n1-2",
    "UNIT OF MEASUREMENT": "DSS",
    "drug sensitivity score": 10.7
  },
  {
    "SMI": "CN[C@@H](C)C(=O)N[C@H]1CN(C(=O)CC(C)C)CC[C@H]2CC[C@@H](C(=O)NC(c3ccccc3)c3ccccc3)N2C1=O",
    "UNIT OF MEASUREMENT": "DSS",
    "drug sensitivity score": 0
  },
  {
    "SMI": "FC(F)(F)c1ccc(/C=C/c2nc(COc3ccc(CCCCn4ccnn4)cc3)co2)cc1",
    "UNIT OF MEASUREMENT": "DSS",
    "drug sensitivity score": 5.6
  },
  {
    "SMI": "COCCNCc1ccc(-c2cc3nccc(Oc4ccc(NC(=O)C5(C(=O)Nc6ccc(F)cc6)CC5)cc4F)c3s2)nc1",
    "UNIT OF MEASUREMENT": "DSS",
    "drug sensitivity score": 3.1
  },
  {
    "SMI": "Nc1ncn([C@H]2C[C@H](O)[C@@H](CO)O2)c(=O)n1",
    "UNIT OF MEASUREMENT": "DSS",
    "drug sensitivity score": 0
  }
]

----------
Tested on: OVCAR8
Assay: drug sensitivity score (DSS2) on cancer cell count; higher = more sensitive; extreme values may be limits of the assay
Conditions: co-cultured fibroblast: WI38; 72 h
Give TRUE when the value for drug sensitivity score is at least 1 DSS. Give FALSE when it is less.

[
  {
    "COMPOUND": "CCn1c(C(=O)N(C2CC2)C2CC2)cc2c3c(ncn3C)c(Nc3cc(C)n(C)n3)nc21",
    "LABEL CLASS": "TRUE"
  },
  {
    "COMPOUND": "CC(=O)OC[C@H]1O[C@@H]([S-])[C@H](OC(C)=O)[C@@H](OC(C)=O)[C@@H]1OC(C)=O.CCP(CC)CC.[Au+] [Auranofin]",
    "LABEL CLASS": "TRUE"
  },
  {
    "COMPOUND": "CC(=O)[C@]1(O)Cc2c(O)c3c(c(O)c2[C@@H](O[C@H]2C[C@H](N)[C@H](O)[C@H](C)O2)C1)C(=O)c1ccccc1C3=O [Idarubicin]",
    "LABEL CLASS": "TRUE"
  },
  {
    "COMPOUND": "Nc1nc(F)nc2c1ncn2[C@@H]1O[C@H](CO)[C@@H](O)[C@@H]1O [Fludarabine]",
    "LABEL CLASS": "TRUE"
  },
  {
    "COMPOUND": "Cc1cc(Nc2cc(N3CCN(C)CC3)nc(Sc3ccc(NC(=O)C4CC4)cc3)n2)n[nH]1 [Tozasertib]",
    "LABEL CLASS": "TRUE"
  },
  {
    "COMPOUND": "CO[C@H]1C[C@@H]2CC[C@@H](C)[C@@](O)(O2)C(=O)C(=O)N2CCCC[C@H]2C(=O)O[C@H]([C@H](C)C[C@@H]2CC[C@@H](OCCO)[C@H](OC)C2)CC(=O)[C@H](C)/C=C(\\C)[C@@H](O)[C@@H](OC)C(=O)[C@H](C)C[C@H](C)/C=C/C=C/C=C/1C [Everolimus]",
    "LABEL CLASS": "FALSE"
  },
  {
    "COMPOUND": "CC(C)N(C[C@H]1O[C@@H](n2cnc3c(N)ncnc32)[C@H](O)[C@@H]1O)[C@H]1C[C@@H](CCc2nc3cc(C(C)(C)C)ccc3[nH]2)C1 [Pinometostat]",
    "LABEL CLASS": "FALSE"
  },
  {
    "COMPOUND": "COc1cc(OC)cc(N(CCNC(C)C)c2ccc3ncc(-c4cnn(C)c4)nc3c2)c1 [Erdafitinib]",
    "LABEL CLASS": "FALSE"
  },
  {
    "COMPOUND": "COC(=O)C[C@](O)(CCCC(C)(C)O)C(=O)O[C@@H]1C(OC)=C[C@]23CCCN2CCc2cc4c(cc2[C@H]13)OCO4 [Omacetaxine]",
    "LABEL CLASS": "TRUE"
  },
  {
    "COMPOUND": "FC(F)(F)c1ccc(CNc2ccc(Cc3c[nH]c4ncc(Cl)cc34)cn2)cn1 [Pexidartinib]",
    "LABEL CLASS": "FALSE"
  },
  {
    "COMPOUND": "Cc1nc(Nc2ncc(C(=O)Nc3c(C)cccc3Cl)s2)cc(N2CCN(CCO)CC2)n1 [Dasatinib]",
    "LABEL CLASS": "TRUE"
  },
  {
    "COMPOUND": "Cc1nc(Nc2n[nH]c3c2CN(C(=O)N[C@H](CN(C)C)c2ccccc2)C3(C)C)c2sccc2n1",
    "LABEL CLASS": "TRUE"
  },
  {
    "COMPOUND": "O=S(=O)(c1cccc2c(O)nccc12)N1CCCNCC1 [Hydroxyfasudil]",
    "LABEL CLASS": "TRUE"
  },
  {
    "COMPOUND": "CNC(=O)c1ccccc1Sc1ccc2c(/C=C/c3ccccn3)n[nH]c2c1 [Axitinib]",
    "LABEL CLASS": "TRUE"
  }
]
